// provenance: the Immune Epitope Database (IEDB)

target: HLA-A*02:06; assay: IEDB peptide-MHC binding, purified MHC/competitive/radioactivity; bounds were set here for any values at or beyond the usual limits of such assays; settings: source organism: Vaccinia virus WR
Please use TRUE for IC50 under 200 nM and FALSE for everything else, ties included.

Check out these entries, answers already filled in.
RESIDUE SEQUENCE	CLASSIFICATION
IVAAVIIMA	FALSE
IVILFIMFM	FALSE
SISSVLTIL	TRUE
IIAVFDSKL	TRUE
QIFNIISYI	TRUE

-- ask Check if IC50 falls below 200 nM for KTPVIVVPVI .
-- reply FALSE

-- ask Check if IC50 falls below 200 nM for LLNMRDLIVT .
-- reply FALSE

-- ask Check if IC50 falls below 200 nM for FVTDYVHEGV .
-- reply TRUE

-- ask Check if IC50 falls below 200 nM for IMRVMANNV .
-- reply FALSE
